# target-or-system: 3-phosphoshikimate 1-carboxyvinyltransferase (Escherichia coli K-12)
# assay-text: Dissociation constant of the at EPSP synthase was determined
readout-label: Kd (µM)

O=C(O)CN(CP(=O)(O)O)[C@@H]1CC(C(=O)O)=C[C@@H](OP(=O)(O)O)[C@H]1O 8

----------
# target-or-system: 3-phosphoshikimate 1-carboxyvinyltransferase (Escherichia coli K-12, UniProt P0A6D3)
# Sequence (P0A6D3 whole entry): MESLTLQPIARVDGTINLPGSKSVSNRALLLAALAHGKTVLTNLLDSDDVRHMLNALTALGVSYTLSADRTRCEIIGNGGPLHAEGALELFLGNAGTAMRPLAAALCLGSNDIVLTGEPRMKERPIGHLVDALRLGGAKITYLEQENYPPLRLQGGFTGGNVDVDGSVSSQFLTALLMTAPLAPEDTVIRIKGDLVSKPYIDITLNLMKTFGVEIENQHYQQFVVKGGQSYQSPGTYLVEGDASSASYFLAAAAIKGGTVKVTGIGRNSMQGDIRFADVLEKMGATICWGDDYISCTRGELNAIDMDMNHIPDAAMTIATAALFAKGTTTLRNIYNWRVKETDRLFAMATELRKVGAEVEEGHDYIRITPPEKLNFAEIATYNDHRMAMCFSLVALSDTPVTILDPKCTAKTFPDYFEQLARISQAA
# assay-text: Inhibition of EPSP synthase PEP-Pi site by the compound was expressed as apparent value
pKi: −log10 of the molar value.
readout-label: pKi

C[C@@](O[C@@H]1CC(C(=O)O)=C[C@@H](OP(=O)(O)O)[C@H]1O)(C(=O)O)P(=O)(O)O 9.96

Values were extracted from ChEMBL document CHEMBL1126366.
